Reported values of clearance for individual entries
# PROTOCOL NOTES: Clearance in Wistar rat at 6.6 umol/kg, iv measured upto 24 hrs by LC-MS/MS analysis
# Format: ADME, organism-based
# MEASUREMENT SETUP: in vivo
The reply should contain only the number, in mL/min.

Completed entries (count: 2):
# COMPOUND SMILES, UNITS TEXT, clearance
records = [
    ("CCOC(=O)[C@]1(C)CCC[C@@]2(C)[C@@H]3CC[C@@]4(C)C[C@]3(CC[C@@H]21)C/C4=N\\OCc1ccsc1", "mL/min", 15),
    ("O=C(NC[C@H]1CN(c2ccc(N3CCOCC3=O)cc2)C(=O)O1)c1ccc(Cl)s1", "mL/min", 15),
]

Let us move to another entry and its clearance.
Please look at this compound and report its clearance: `CCOC(=O)[C@]1(C)CCC[C@@]2(C)[C@@H]3CC[C@@]4(C)C[C@]3(CC[C@@H]21)C/C4=N\OCC1(C)COC1` 15

* * *

Reported values of half-life for individual entries
# PROTOCOL NOTES: Half life in Wistar rat at 6.6 umol/kg, iv measured upto 24 hrs by LC-MS/MS analysis
# Format: ADME, organism-based
# MEASUREMENT SETUP: in vivo
The reply should contain only the number, in h.

Completed entries (count: 2):
# COMPOUND, ATTRIBUTE MEASURED, UNITS TEXT, EXPERIMENTAL VALUE
rows = [
    ("O=C(NC[C@H]1CN(c2ccc(N3CCOCC3=O)cc2)C(=O)O1)c1ccc(Cl)s1 [RIVAROXABAN]", "half-life", "h", 4.4),
    ("CCOC(=O)[C@]1(C)CCC[C@@]2(C)[C@@H]3CC[C@@]4(C)C[C@]3(CC[C@@H]21)C/C4=N\\OCc1ccsc1", "half-life", "h", 3.2),
]

Please look at this compound and report its half-life: `CCOC(=O)[C@]1(C)CCC[C@@]2(C)[C@@H]3CC[C@@]4(C)C[C@]3(CC[C@@H]21)C/C4=N\OCC1(C)COC1` 3.4

* * *

Reported values of pKi for individual entries
# TARGET DESC: Plasma kallikrein (Homo sapiens)
# Sequence (P03952 20-390 limits assumed): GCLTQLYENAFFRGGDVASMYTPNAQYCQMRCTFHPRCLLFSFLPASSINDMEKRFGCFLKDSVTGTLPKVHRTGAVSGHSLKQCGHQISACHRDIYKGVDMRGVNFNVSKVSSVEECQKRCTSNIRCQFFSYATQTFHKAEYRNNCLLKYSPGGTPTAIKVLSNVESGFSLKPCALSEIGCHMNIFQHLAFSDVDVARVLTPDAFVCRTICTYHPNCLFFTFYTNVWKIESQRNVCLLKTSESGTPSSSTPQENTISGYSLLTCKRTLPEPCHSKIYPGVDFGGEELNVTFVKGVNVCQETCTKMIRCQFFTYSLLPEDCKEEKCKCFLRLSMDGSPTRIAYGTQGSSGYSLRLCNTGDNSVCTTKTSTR
# Sequence (P03952 391-638 limits assumed): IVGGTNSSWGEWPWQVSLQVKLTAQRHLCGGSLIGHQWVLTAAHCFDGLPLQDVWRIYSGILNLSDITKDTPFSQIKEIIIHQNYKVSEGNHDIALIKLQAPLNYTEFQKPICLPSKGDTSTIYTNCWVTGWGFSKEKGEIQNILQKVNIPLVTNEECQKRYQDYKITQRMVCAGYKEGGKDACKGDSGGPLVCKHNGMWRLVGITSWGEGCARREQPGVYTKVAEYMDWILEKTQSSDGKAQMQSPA
# PROTOCOL NOTES: Inhibition of human kallikrein using S-2302 as substrate incubated for 15 mins followed by substrate addition and measured after 1 hr by chromogenic assay
Quick note: pKi values are minus log10 of concentrations in mol/L.

# COMPOUND SMILES, EXPERIMENTAL VALUE
rows = [
    ("CCOC(=O)[C@]1(C)CCC[C@@]2(C)[C@@H]3CC[C@@]4(C)C[C@]3(CC[C@@H]21)C/C4=N\\OCc1ccsc1", 5.66),
]

Let us move to another entry and its pKi.
Please look at this compound and report its pKi: `CCOC(=O)[C@]1(C)CCC[C@@]2(C)[C@@H]3CC[C@@]4(C)C[C@]3(CC[C@@H]21)C/C4=N\OCC1(C)COC1` 6.56

* * *

# TARGET DESC: UniProt:P00742
# Sequence (P00742 41-179 limits assumed): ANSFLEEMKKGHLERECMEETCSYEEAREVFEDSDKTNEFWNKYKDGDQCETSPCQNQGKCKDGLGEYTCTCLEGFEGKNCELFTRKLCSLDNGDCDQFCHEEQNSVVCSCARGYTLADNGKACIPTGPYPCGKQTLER
# Sequence (P00742 235-488 limits assumed): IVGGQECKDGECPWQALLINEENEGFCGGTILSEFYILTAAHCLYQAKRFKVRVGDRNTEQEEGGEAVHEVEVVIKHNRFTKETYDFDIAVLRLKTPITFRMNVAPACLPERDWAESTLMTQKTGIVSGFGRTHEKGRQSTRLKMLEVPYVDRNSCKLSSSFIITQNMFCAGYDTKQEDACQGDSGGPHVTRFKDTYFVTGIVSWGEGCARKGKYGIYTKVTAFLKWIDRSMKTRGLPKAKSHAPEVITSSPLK
# PROTOCOL NOTES: Inhibition of human activated Factor X using S-2765 as substrate incubated for 15 mins followed by substrate addition and measured after 1 hr by chromogenic assay
pKi: −log10 of the molar value.
Binary classification by pKi, with 6 as an inclusive lower bound for Criterion met; all other cases are Criterion not met.

# COMPOUND SMILES, CAT
rows = [
    ("CCOC(=O)[C@]1(C)CCC[C@@]2(C)[C@@H]3CC[C@@]4(C)C[C@]3(CC[C@@H]21)C/C4=N\\OC/C=C/c1ccc2sccc2c1", "Criterion met"),
]

Check if pKi >= 6 (inclusive). Item: `CCOC(=O)[C@]1(C)CCC[C@@]2(C)[C@@H]3CC[C@@]4(C)C[C@]3(CC[C@@H]21)C/C4=N\OC/C=C/c1ccc2[nH]c3ccccc3c2c1` Criterion not met

Check if pKi >= 6 (inclusive). Item: `CCOC(=O)[C@]1(C)CCC[C@@]2(C)[C@@H]3CC[C@@]4(C)C[C@]3(CC[C@@H]21)C/C4=N\OC/C=C/c1ccc(F)cc1` Criterion not met

Check if pKi >= 6 (inclusive). Item: `C=CCO/N=C1\C[C@]23CC[C@H]4[C@@](C)(CCC[C@@]4(C)C(=O)OCC)[C@@H]2CC[C@@]1(C)C3` Criterion not met

Check if pKi >= 6 (inclusive). Item: `CCOC(=O)[C@]1(C)CCC[C@@]2(C)[C@@H]3CC[C@@]4(C)C[C@]3(CC[C@@H]21)C/C4=N\OCC1OCCO1` Criterion not met

Check if pKi >= 6 (inclusive). Item: `CCOC(=O)[C@]1(C)CCC[C@@]2(C)[C@@H]3CC[C@@]4(C)C[C@]3(CC[C@@H]21)C/C4=N\OC/C=C/c1cc(F)c(F)c(F)c1` Criterion not met
